B1: FBXO3 (parent)
chain: AGGFQQRQGLKYCLPLTFCIHTGL

variants of: B1; test: protein stability index of a GFP-peptide fusion (GPS, HEK-293T) (PSI 1-6); higher = more stable; conditions: c terminus: a fixed tail appended;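 further: lentivirally expressed fusions sorted by FACS into six bins by GFP to DsRed ratio, PSI derived from sequencing read proportions per bin multiplied by bin number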
Parameter threshold = 3. Response is condition met when protein stability index meets or exceeds it, else condition not met.

Asked: API: above_or_equal(metric=protein stability index, cutoff=3) for item `H21L`
Given back: condition not met

Asked: API: above_or_equal(metric=protein stability index, cutoff=3) for item `L24R`
Given back: condition not met

More entries:
Asked: API: above_or_equal(metric=protein stability index, cutoff=3) for item `K11Q`
Given back: condition not met

Asked: API: above_or_equal(metric=protein stability index, cutoff=3) for item `Q8G`
Given back: condition met

Asked: API: above_or_equal(metric=protein stability index, cutoff=3) for item `G2T`
Given back: condition not met

Asked: API: above_or_equal(metric=protein stability index, cutoff=3) for item `T22N`
Given back: condition met

Asked: API: above_or_equal(metric=protein stability index, cutoff=3) for item `L10Y`
Given back: condition met
